This collection of values is drawn from ChEMBL document CHEMBL1201862.

# Test system: HOP-62
# assayRemarks: NCI tumour cell line growth inhibition, 48 h
Active and inactive are the calls of the source. Rule as the data show it: active = GI50 up to about 1.1 µM and inactive = higher.
parameterMeasured: GI50

{"molecule": "O=C1NC(=N/c2ccccc2)/C(=N\\c2ccccc2)N1c1ccccc1", "GI50": "18.5 µM (inactive)"}

Consider the molecule "O=C(CSc1nc2ccc([N+](=O)[O-])cc2s1)c1ccc2ccccc2c1" and give its recorded GI50.
> 100 µM (inactive)

Answer with the recorded GI50 of "C/C=C/c1cc(=O)c([C@@H]2OC(=O)c3cc(OC)cc(OC)c32)co1" only.
53 µM (inactive)

Indicate the recorded GI50 value for this molecule: COc1ccccc1C1C2=C(COC2=O)Oc2cc3c(cc21)OCO3 (stereo not given)
3.93 µM (inactive)

Given "CN(C)C(=O)O/N=C1/C(=C2/C(=O)Nc3ccccc32)Nc2ccccc21" , respond with its GI50.
14.1 µM (inactive)
